Hello, the source for this data is patent US20130210809A1, in case you need it.

Record form. Attribute: melting point. Fill in for each entry.

IN: Supply measured melting point of `Cc1ccnc(Nc2nc(-c3cn[nH]c3C(=O)C3CC3)cs2)n1` in your reply.
OUT: 239 to 240 °C

IN: Supply measured melting point of `CC(=O)c1sc(Nc2nccc(C)n2)nc1-c1cn[nH]c1` in your reply.
OUT: 288 to 291 °C

IN: Supply measured melting point of `Cc1ccnc(Nc2nc(-c3c[nH]nc3C(=O)c3ccccc3)cs2)n1` in your reply.
OUT: 254 to 255 °C

IN: Supply measured melting point of `Cc1ccnc(Nc2nc(-c3c[nH]nc3-c3cccc(N(C)C)c3)cs2)n1` in your reply.
OUT: 239 to 241 °C

IN: Supply measured melting point of Cc1ccnc(Nc2nc(-c3c[nH]nc3C(O)c3ccccc3)cs2)n1 (stereo not drawn) in your reply.
OUT: 249.5 °C

IN: Supply measured melting point of `COc1ccc(F)cc1-c1n[nH]cc1-c1csc(Nc2nccc(C)n2)n1` in your reply.
OUT: 247 °C

----------
Record form. Attribute: EC50. Fill in for each entry.
- target: recombinant human mGluR4a receptors (Homo sapiens, UniProt Q14833)
- Sequence (Q14833 33-912): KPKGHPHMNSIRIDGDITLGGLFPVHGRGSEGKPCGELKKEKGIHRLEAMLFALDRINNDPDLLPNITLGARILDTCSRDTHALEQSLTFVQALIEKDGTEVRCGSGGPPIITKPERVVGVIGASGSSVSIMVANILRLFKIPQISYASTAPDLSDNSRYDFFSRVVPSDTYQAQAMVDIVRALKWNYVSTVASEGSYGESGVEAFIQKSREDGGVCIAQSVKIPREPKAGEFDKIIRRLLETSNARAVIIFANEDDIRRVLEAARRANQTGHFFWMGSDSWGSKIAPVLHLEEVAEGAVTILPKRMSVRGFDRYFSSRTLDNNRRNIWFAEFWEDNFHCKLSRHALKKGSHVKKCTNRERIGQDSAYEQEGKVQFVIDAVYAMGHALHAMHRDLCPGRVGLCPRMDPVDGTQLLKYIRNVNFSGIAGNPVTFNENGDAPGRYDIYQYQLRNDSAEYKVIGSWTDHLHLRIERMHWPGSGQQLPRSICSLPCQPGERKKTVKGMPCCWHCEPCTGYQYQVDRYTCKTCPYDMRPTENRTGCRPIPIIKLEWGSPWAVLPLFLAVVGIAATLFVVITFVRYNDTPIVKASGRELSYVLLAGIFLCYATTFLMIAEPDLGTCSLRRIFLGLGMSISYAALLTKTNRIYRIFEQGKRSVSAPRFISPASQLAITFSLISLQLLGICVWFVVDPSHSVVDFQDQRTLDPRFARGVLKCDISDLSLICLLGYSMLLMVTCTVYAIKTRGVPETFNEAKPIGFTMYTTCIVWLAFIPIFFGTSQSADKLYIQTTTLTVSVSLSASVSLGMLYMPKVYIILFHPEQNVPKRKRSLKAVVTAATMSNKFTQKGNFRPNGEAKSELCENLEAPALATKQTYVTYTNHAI
- measurement-description: mGluR4 assay on HEK-expressing human mGluR4 (fluorescent cell based Ca2+ mobilization assay, FLIPR)
- assay-context: HEK-293 cells expressing hmGluR4; enhancement of EC25 glutamate response; mean of at least three independent experiments in duplicate; read-out: Ca^2+ Flux (mean EC50)

IN: Supply measured EC50 of Cc1ccnc(Nc2nc(-c3c[nH]nc3-c3ccccc3OC(F)(F)F)cs2)n1 [Compound 1-20] in your reply.
OUT: 1000 to 10000 nM

IN: Supply measured EC50 of COCc1n[nH]cc1-c1csc(Nc2ncc(F)cn2)n1 [Compound 1-37] in your reply.
OUT: 1000 to 10000 nM

IN: Supply measured EC50 of Cc1ccnc(Nc2nc(-c3c[nH]nc3-c3ccc(C4CC4)cc3)cs2)n1 [Compound 1-17] in your reply.
OUT: 1000 to 10000 nM

IN: Supply measured EC50 of Cc1ccnc(Nc2nc(-c3c[nH]nc3-c3ccccc3Cl)cs2)n1 [Compound 1-21] in your reply.
OUT: 100 to 1000 nM

IN: Supply measured EC50 of Cc1ccnc(Nc2nc(-c3cn[nH]c3-c3cccc(C#N)c3F)cs2)n1 [Compound 1-35] in your reply.
OUT: < 100 nM

IN: Supply measured EC50 of Cc1ccnc(Nc2nc(-c3c[nH]nc3-c3cncc(C(C)(C)O)c3)cs2)n1 [Compound 1-14] in your reply.
OUT: 1000 to 10000 nM

IN: Supply measured EC50 of Cc1ccnc(Nc2nc(-c3cn[nH]c3-c3cc(C#N)ccc3F)cs2)n1 [Compound 1-34] in your reply.
OUT: 100 to 1000 nM

IN: Supply measured EC50 of Cc1ccnc(Nc2nc(-c3c[nH]nc3-c3ccc(F)cc3F)cs2)n1 [Compound 1-24] in your reply.
OUT: 1000 to 10000 nM

IN: Supply measured EC50 of Cc1nc(Nc2nc(-c3cn[nH]c3)c(C#N)s2)ns1 [Compound 1-44] in your reply.
OUT: < 100 nM

IN: Supply measured EC50 of COc1ccc(F)cc1-c1n[nH]cc1-c1csc(Nc2ncccn2)n1 [Compound 1-31] in your reply.
OUT: < 100 nM

IN: Supply measured EC50 of Cc1ccnc(Nc2nc(-c3c[nH]nc3-c3cccc(N(C)C)c3)cs2)n1 [Compound 1-30] in your reply.
OUT: 1000 to 10000 nM

IN: Supply measured EC50 of Cc1ccnc(Nc2nc(-c3c[nH]nc3-c3ccccc3F)cs2)n1 [Compound 1-3] in your reply.
OUT: < 100 nM

IN: Supply measured EC50 of COC(C)c1[nH]ncc1-c1csc(Nc2nccc(C)n2)n1 (stereo not drawn) [Compound 1-29] in your reply.
OUT: 100 to 1000 nM

IN: Supply measured EC50 of N#Cc1sc(Nc2nccnn2)nc1-c1cn[nH]c1 [Compound 1-45] in your reply.
OUT: 100 to 1000 nM

IN: Supply measured EC50 of Cc1ccnc(Nc2nc(-c3c[nH]nc3-c3ccc(Cl)cc3)cs2)n1 [Compound 1-16] in your reply.
OUT: 100 to 1000 nM

IN: Supply measured EC50 of COc1ccc(F)cc1-c1n[nH]cc1-c1csc(Nc2nccc(C)n2)n1 [Compound 1-5] in your reply.
OUT: 100 to 1000 nM

IN: Supply measured EC50 of CCOc1sc(Nc2nccc(C)n2)nc1-c1cn[nH]c1 [Compound 1-47] in your reply.
OUT: < 100 nM

IN: Supply measured EC50 of Cc1ccnc(Nc2nc(-c3c[nH]nc3-c3cccc(C(N)=O)c3)cs2)n1 [Compound 1-22] in your reply.
OUT: 1000 to 10000 nM

----------
- target: recombinant human mGluR4a receptors (Homo sapiens, UniProt Q14833)
- measurement-description: mGluR4 assay on HEK-expressing human mGluR4 (fluorescent cell based Ca2+ mobilization assay, FLIPR)
- assay-context: HEK-293 cells expressing hmGluR4; enhancement of EC25 glutamate response; mean of at least three independent experiments in duplicate; read-out: Ca^2+ Flux (mean EC50)
Record form. Attribute: EC50. Fill in for each entry.

IN: Name the value of EC50 reported for `COC(=O)N1CC=C(c2n[nH]cc2-c2csc(Nc3nccc(C)n3)n2)CC1` when tested on recombinant human mGluR4a receptors (Homo sapiens, UniProt Q14833).
OUT: 1000 to 10000 nM

IN: Name the value of EC50 reported for `Cc1ccnc(Nc2nc(-c3c[nH]nc3-c3cccc(CN4CCOCC4)c3)cs2)n1` when tested on recombinant human mGluR4a receptors (Homo sapiens, UniProt Q14833).
OUT: 1000 to 10000 nM

IN: Name the value of EC50 reported for `Cc1ccnc(Nc2nc(-c3cn[nH]c3C(=O)C3CC3)cs2)n1` when tested on recombinant human mGluR4a receptors (Homo sapiens, UniProt Q14833).
OUT: 100 to 1000 nM

IN: Name the value of EC50 reported for `c1ccc(Nc2nc(-c3c[nH]nc3N3CCOCC3)cs2)nc1` when tested on recombinant human mGluR4a receptors (Homo sapiens, UniProt Q14833).
OUT: 1000 to 10000 nM

IN: Name the value of EC50 reported for `Cc1ccnc(Nc2nc(-c3c[nH]nc3-c3cncc(Cl)c3)cs2)n1` when tested on recombinant human mGluR4a receptors (Homo sapiens, UniProt Q14833).
OUT: 1000 to 10000 nM

IN: Name the value of EC50 reported for `COc1ccccc1-c1n[nH]cc1-c1csc(Nc2nccc(C)n2)n1` when tested on recombinant human mGluR4a receptors (Homo sapiens, UniProt Q14833).
OUT: 1000 to 10000 nM

IN: Name the value of EC50 reported for `Cc1ccnc(Nc2nc(-c3c[nH]nc3-c3cccc(C#N)c3)cs2)n1` when tested on recombinant human mGluR4a receptors (Homo sapiens, UniProt Q14833).
OUT: < 100 nM

IN: Name the value of EC50 reported for `Cc1ccnc(Nc2nc(-c3cn[nH]c3COC3CCC3)cs2)n1` when tested on recombinant human mGluR4a receptors (Homo sapiens, UniProt Q14833).
OUT: 100 to 1000 nM

IN: Name the value of EC50 reported for `CCOc1ccccc1-c1n[nH]cc1-c1csc(Nc2nccc(C)n2)n1` when tested on recombinant human mGluR4a receptors (Homo sapiens, UniProt Q14833).
OUT: 1000 to 10000 nM

IN: Name the value of EC50 reported for `CC(=O)N1CC=C(c2n[nH]cc2-c2csc(Nc3nccc(C)n3)n2)CC1` when tested on recombinant human mGluR4a receptors (Homo sapiens, UniProt Q14833).
OUT: 1000 to 10000 nM

IN: Name the value of EC50 reported for `Cc1ccnc(Nc2nc(-c3c[nH]nc3-c3ccncc3)cs2)n1` when tested on recombinant human mGluR4a receptors (Homo sapiens, UniProt Q14833).
OUT: 1000 to 10000 nM

IN: Name the value of EC50 reported for Cc1ccnc(Nc2nc(-c3c[nH]nc3C(O)c3ccccc3)cs2)n1 (stereo not drawn) when tested on recombinant human mGluR4a receptors (Homo sapiens, UniProt Q14833).
OUT: 1000 to 10000 nM

IN: Name the value of EC50 reported for `CCc1ccnc(Nc2nc(-c3c[nH]nc3COC)cs2)n1` when tested on recombinant human mGluR4a receptors (Homo sapiens, UniProt Q14833).
OUT: 1000 to 10000 nM

IN: Name the value of EC50 reported for `Cc1ccnc(Nc2nc(-c3c[nH]nc3-c3cccc(CCCO)c3)cs2)n1` when tested on recombinant human mGluR4a receptors (Homo sapiens, UniProt Q14833).
OUT: 100 to 1000 nM

IN: Name the value of EC50 reported for `CNC(=O)c1[nH]ncc1-c1csc(Nc2nccc(C)n2)n1` when tested on recombinant human mGluR4a receptors (Homo sapiens, UniProt Q14833).
OUT: 1000 to 10000 nM

IN: Name the value of EC50 reported for `Cc1ccnc(Nc2nc(-c3c[nH]nc3-c3cccc(N4CCS(=O)(=O)CC4)c3)cs2)n1` when tested on recombinant human mGluR4a receptors (Homo sapiens, UniProt Q14833).
OUT: 1000 to 10000 nM

IN: Name the value of EC50 reported for `Cc1ccnc(Nc2nc(-c3c[nH]nc3-c3cnn4c3CCC4)cs2)n1` when tested on recombinant human mGluR4a receptors (Homo sapiens, UniProt Q14833).
OUT: 1000 to 10000 nM

IN: Name the value of EC50 reported for `Cc1cccc(-c2n[nH]cc2-c2csc(Nc3nccc(C)n3)n2)c1` when tested on recombinant human mGluR4a receptors (Homo sapiens, UniProt Q14833).
OUT: 1000 to 10000 nM
